# Experimental protocol: photoluminescence quantum yield (fraction); solvent given as SMILES
# Run parameters: in C1CCOC1
Readout kind: photoluminescence quantum yield
Answers are plain numbers.

Kindly indicate its recorded photoluminescence quantum yield. Item: CCCCN1C(=O)c2cc(Oc3ccc(C(C)(C)C)cc3)c3c4c(Oc5ccc(C(C)(C)C)cc5)cc5c(=O)n6c(c7cc(Oc8ccc(C(C)(C)C)cc8)c(c8c(Oc9ccc(C(C)(C)C)cc9)cc(c2c38)C1=O)c4c57)=Cc1cccc[n+]1[B-]6(F)F
0.564

Kindly indicate its recorded photoluminescence quantum yield. Item: Cc1cc(C)c(C2=C3C=C(c4ccc(C(C)(C)C)cc4)C(c4ccc(C(C)(C)C)cc4)=[N+]3[B-](F)(F)n3c2cc(-c2ccc(C(C)(C)C)cc2)c3-c2ccc(C(C)(C)C)cc2)c(C)c1
0.96

Kindly indicate its recorded photoluminescence quantum yield. Item: CCCCN1c2ccccc2Sc2cc(/C=C/C3=Nc4ccc5ccccc5c4C3(C)C)ccc21
0.12

Kindly give each listed record's photoluminescence quantum yield.
1. CN(C)c1ccc(C2=Nc3sc4cc(C(F)(F)F)ccc4[n+]3[B-](F)(F)O2)cc1
2. CN(C)CCNCc1c2ccccc2cc2ccccc12
3. CCCCCCCCN1c2ccccc2Sc2cc(/C=C/c3ccc(N(c4ccc(/C=C/c5ccc6c(c5)Sc5ccccc5N6CCCCCCCC)cc4)c4ccc(/C=C/c5ccc(/C=C/c6ccc(N(c7ccc(/C=C/c8ccc9c(c8)Sc8ccccc8N9CCCCCCCC)cc7)c7ccc(/C=C/c8ccc9c(c8)Sc8ccccc8N9CCCCCCCC)cc7)cc6)c6nsnc56)cc4)cc3)ccc21
4. CCCCCCC1(CCCCCC)c2cc(-c3nc(-c4ccc5c(c4)C(CCCCCC)(CCCCCC)c4cc(-n6c7ccc(C(C)(C)C)cc7c7cc(C(C)(C)C)ccc76)ccc4-5)nc(-c4ccc5c(c4)C(CCCCCC)(CCCCCC)c4cc(-n6c7ccc(C(C)(C)C)cc7c7cc(C(C)(C)C)ccc76)ccc4-5)n3)ccc2-c2ccc(-n3c4ccc(C(C)(C)C)cc4c4cc(C(C)(C)C)ccc43)cc21
5. COC(=O)c1cc2c(cc3ccc4cccc5ccc2c3c45)[nH]1
6. COc1cc(OC)cc(C2=C3C(C)=C(I)C(C)=[N+]3[B-](F)(F)n3c(/C=C/c4c[nH]c5ccc([N+](=O)[O-])cc45)c(I)c(C)c32)c1

[0.61, 0.00216, 0.024, 0.56, 0.82, 0.32]

Kindly give each listed record's photoluminescence quantum yield.
1. CCCCC1(CCCC)c2cc(C#Cc3ccc(C=C4c5ccccc5C=Cc5ccccc54)cc3)ccc2-c2ccc(C#Cc3ccc(C=C4c5ccccc5C=Cc5ccccc54)cc3)cc21
2. O=C1C(=c2c(=O)c3c4ccccc4cc4cc5ccccc5c2c43)C(=O)c2ccccc21

[0.00084, 0.235]

Kindly indicate its recorded photoluminescence quantum yield. Item: C(=C\c1ccc(-c2nc3c4cccnc4c4ncccc4c3[nH]2)cc1)/c1ccncc1
0.54

Provenance of the data: the Deep4Chem optical property database
